Target: kinase domain protein of RC kinase (Homo sapiens)
Sequence (Q56UN5 1061-1324 limits assumed): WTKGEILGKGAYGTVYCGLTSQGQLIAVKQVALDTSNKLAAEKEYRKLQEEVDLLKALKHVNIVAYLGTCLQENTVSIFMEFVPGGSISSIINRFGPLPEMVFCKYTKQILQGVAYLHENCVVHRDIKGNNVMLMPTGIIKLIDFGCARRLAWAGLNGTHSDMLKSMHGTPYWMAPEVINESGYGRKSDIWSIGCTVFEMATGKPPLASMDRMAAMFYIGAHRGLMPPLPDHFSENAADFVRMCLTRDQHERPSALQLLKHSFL
Assay: Enzymatic assay for kinase inhibitory activity (Crebtide substrate, LANCE readout), kinase domain protein
Type: biochemical
Conditions: test compound 1 μM, ATP 1 μM, Crebtide 50 nM
The following compounds are shown together with reported inhibition at 1 µM values.

Solved entries:
compound: NC(=O)c1c(Nc2ccccc2)n[nH]c1NCc1ccc(O)cc1 [Compound D2]
attribute_measured: inhibition at 1 µM
value_measured: 20 to 50%
--
compound: NC(=O)c1c(Nc2ccc(Br)c(Cl)c2)n[nH]c1NCc1ccc(O)cc1
attribute_measured: inhibition at 1 µM
value_measured: 20 to 50%
--
compound: N#Cc1c(Nc2cccc(Cl)c2)n[nH]c1NCc1ccc(S(F)(F)(F)(F)F)cc1
attribute_measured: inhibition at 1 µM
value_measured: 5 to 20%
--
compound: NC(=O)c1c(Nc2ccc(Cl)nc2)n[nH]c1NCc1ccc(O)cc1
attribute_measured: inhibition at 1 µM
value_measured: ≥ 50%
--
compound: NC(=O)c1c(Nc2ccc(-c3ccccn3)cc2)n[nH]c1NCc1ccc(O)cc1
attribute_measured: inhibition at 1 µM
value_measured: ≥ 50%
--
compound: COc1ccccc1CNc1[nH]nc(Nc2cccc(Cl)c2)c1C(N)=O
attribute_measured: inhibition at 1 µM
value_measured: 5 to 20%

Give a short answer stating reported inhibition at 1 µM for "COc1ccc(CNc2[nH]nc(Nc3cccnc3)c2C(N)=O)cc1" .
20 to 50%

Give a short answer stating reported inhibition at 1 µM for "NC(=O)c1c(Nc2ccc(NC(=O)c3cccc(Cl)c3)cc2)n[nH]c1NCc1ccc(O)cc1" .
≥ 50%

Give a short answer stating reported inhibition at 1 µM for "COc1ccc(C(=O)Nc2ccc(Nc3n[nH]c(NCc4ccc(O)cc4)c3C(N)=O)cc2)cc1OC" .
≥ 50%

Give a short answer stating reported inhibition at 1 µM for "CN1CCN(c2ccc(Nc3n[nH]c(NCc4ccc(O)cc4)c3C(N)=O)cc2Cl)CC1" .
≥ 50%

Give a short answer stating reported inhibition at 1 µM for "N#Cc1c(Nc2cccc(Cl)c2)n[nH]c1NCc1ccc(OCCO)cc1" .
5 to 20%

Give a short answer stating reported inhibition at 1 µM for "N#Cc1c(Nc2cccc(Cl)c2)n[nH]c1NCc1cccnc1Cl" .
≤ 5%

Give a short answer stating reported inhibition at 1 µM for "Cc1ccc(CNc2[nH]nc(Nc3cccc(Cl)c3)c2C#N)c(O)c1" .
5 to 20%

Give a short answer stating reported inhibition at 1 µM for "NC(=O)c1ccc(Nc2n[nH]c(NCc3ccc(O)cc3)c2C(N)=O)cc1" .
≥ 50%

Give a short answer stating reported inhibition at 1 µM for "NC(=O)c1c(Nc2ccc(N3CCOCC3)nc2)n[nH]c1NCc1ccc(O)cc1" .
≥ 50%

Give a short answer stating reported inhibition at 1 µM for "Cn1nc(C(F)(F)F)c(CNc2[nH]nc(Nc3cccc(Cl)c3)c2C#N)c1Cl" .
≤ 5%

Give a short answer stating reported inhibition at 1 µM for "CC(C)(C)OC(=O)Nc1ccc(Nc2n[nH]c(NCc3ccc(O)cc3)c2C(N)=O)cc1" .
≥ 50%
